# credit: patent US12600732B2

experiment: PK data for BTK CTMs (in vivo plasma concentrations); conditions: Monkey cynomolgus, 10 mg/kg PO
property.measured: bioavailability (%)
# number only, unit % dropped from output

1. CN1CCN([C@H]2CCCN(c3cnc(C(N)=O)c(Nc4ccc(C5CCN(CC6CCN(c7ccc(C(=O)NC8CCC(=O)NC8=O)nc7)CC6)CC5)cc4)n3)C2)C1=O (some centres unmarked) [Compound 130] : 1

Now examine the next entry.
Input line: Return reported bioavailability; argument: NC(=O)c1ncc(N2CCCCC2)nc1Nc1ccc(C2CCN(C[C@@H]3CCN(c4ccc5c(c4)C(=O)N(C4CCC(=O)NC4=O)C5=O)C3)CC2)cc1 (some centres unmarked) [Compound 149]
Output line: 0.8

* * *

Attribute: % BTK Remaining
molecular target: BTK (Mus musculus, UniProt P35991); construct: from tissue; host or cells: mouse blood B cells / splenocytes (CD-1 or BALB/c); assay: In vivo degradation of BTK in mouse PD experiments with oral dosing; conditions: oral dose 30 mg/kg, 24 h, splenocytes, HTRF
Sequence (P35991 whole entry): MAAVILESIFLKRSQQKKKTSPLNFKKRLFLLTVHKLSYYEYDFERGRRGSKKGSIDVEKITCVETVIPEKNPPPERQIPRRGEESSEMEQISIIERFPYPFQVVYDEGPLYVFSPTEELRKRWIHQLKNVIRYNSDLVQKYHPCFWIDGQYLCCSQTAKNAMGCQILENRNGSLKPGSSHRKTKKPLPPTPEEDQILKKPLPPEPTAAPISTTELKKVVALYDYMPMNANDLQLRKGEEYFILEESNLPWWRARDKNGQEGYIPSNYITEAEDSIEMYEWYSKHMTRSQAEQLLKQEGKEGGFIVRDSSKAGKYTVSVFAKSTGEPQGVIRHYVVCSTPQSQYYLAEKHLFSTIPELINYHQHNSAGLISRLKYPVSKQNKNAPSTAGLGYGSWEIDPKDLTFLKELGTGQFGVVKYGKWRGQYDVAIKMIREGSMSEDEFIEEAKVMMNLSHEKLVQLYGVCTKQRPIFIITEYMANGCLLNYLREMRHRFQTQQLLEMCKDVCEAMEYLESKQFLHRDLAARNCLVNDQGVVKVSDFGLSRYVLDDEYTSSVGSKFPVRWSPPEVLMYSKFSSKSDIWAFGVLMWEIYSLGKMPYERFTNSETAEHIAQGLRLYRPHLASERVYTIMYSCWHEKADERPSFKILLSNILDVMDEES

Answered cases to consult:
1) CN1CCN([C@@H]2CCCN(c3cnc(C(N)=O)c(Nc4ccc(C5CCN(CC6CCN(c7cnn(C8CCC(=O)NC8=O)c(=O)c7)CC6)CC5)cc4)n3)C2)C1=O (some centres unmarked) : 59%
2) NC(=O)c1ncc(N2CCC[C@@H](N3CCCC3=O)C2)nc1Nc1ccc(N2CC(C3CCN(c4ccc5c(c4)C(=O)N(C4CCC(=O)NC4=O)C5=O)CC3)C2)nc1 (some centres unmarked) : 84%

Then this compound:
Input line: Could you tell me which % BTK Remaining is on file for CN1CCN([C@@H]2CCCN(c3cnc(C(N)=O)c(Nc4ccc(C5CCN(CC6CCN(c7ccc8c(=O)n(C9CCC(=O)NC9=O)ccc8c7)CC6)CC5)cc4)n3)C2)C1=O (some centres unmarked) ?
Output line: 20%

* * *

target: BTK (Mus musculus); construct: from tissue; host or cells: mouse blood B cells / splenocytes (CD-1 or BALB/c); assay: In vivo degradation of BTK in mouse PD experiments with oral dosing; conditions: oral dose 10 mg/kg, 24 h, splenocytes, flow cytometry
% BTK Remaining values by entry
Value expressed in %; do not type the unit.

Reference set (2 entries):
1. CN1CCN([C@@H]2CCCN(c3cnc(C(N)=O)c(Nc4ccc(C5CCN(CC6CCN(c7ccc(C(=O)N[C@H]8CCC(=O)NC8=O)nc7)CC6)CC5)cc4)n3)C2)C1=O [Compound 195] : 23
2. CN1CCN([C@H]2CCCN(c3cnc(C(N)=O)c(Nc4ccc(N5CCC6(CCN(c7ccc8c(c7)C(=O)N(C7CCC(=O)NC7=O)C8=O)CC6)CC5)nc4)n3)C2)C1=O (stereo partly shown) [Compound 80] : 74

Input line: Please report the recorded % BTK Remaining for CN1CCN([C@@H]2CCCN(c3cnc(C(N)=O)c(Nc4ccc(N5CCC6(CC5)CCN(c5ccc7c(c5)C(=O)N(C5CCC(=O)NC5=O)C7=O)CC6)cc4)n3)C2)C1=O (stereo partly shown) [Compound 55] .
Output line: 45

Input line: Field entry: CN1CCN([C@@H]2CCCN(c3cnc(C(N)=O)c(Nc4ccc(C5CCN(CC6CCN(c7ccc(C(=O)N[C@@H]8CCC(=O)NC8=O)nc7)CC6)CC5)cc4)n3)C2)C1=O [Compound 194]
Output line: 57

* * *

Entries and their DC50
molecular target: BTK (Homo sapiens, UniProt Q06187); assay: Cellular BTK degradation assay (Total BTK HTRF) in TMD8 cells; type: cell-based; set-up: endogenous in cells; host or cells: TMD8; settings: treatment time 24 h
Sequence (Q06187 whole entry): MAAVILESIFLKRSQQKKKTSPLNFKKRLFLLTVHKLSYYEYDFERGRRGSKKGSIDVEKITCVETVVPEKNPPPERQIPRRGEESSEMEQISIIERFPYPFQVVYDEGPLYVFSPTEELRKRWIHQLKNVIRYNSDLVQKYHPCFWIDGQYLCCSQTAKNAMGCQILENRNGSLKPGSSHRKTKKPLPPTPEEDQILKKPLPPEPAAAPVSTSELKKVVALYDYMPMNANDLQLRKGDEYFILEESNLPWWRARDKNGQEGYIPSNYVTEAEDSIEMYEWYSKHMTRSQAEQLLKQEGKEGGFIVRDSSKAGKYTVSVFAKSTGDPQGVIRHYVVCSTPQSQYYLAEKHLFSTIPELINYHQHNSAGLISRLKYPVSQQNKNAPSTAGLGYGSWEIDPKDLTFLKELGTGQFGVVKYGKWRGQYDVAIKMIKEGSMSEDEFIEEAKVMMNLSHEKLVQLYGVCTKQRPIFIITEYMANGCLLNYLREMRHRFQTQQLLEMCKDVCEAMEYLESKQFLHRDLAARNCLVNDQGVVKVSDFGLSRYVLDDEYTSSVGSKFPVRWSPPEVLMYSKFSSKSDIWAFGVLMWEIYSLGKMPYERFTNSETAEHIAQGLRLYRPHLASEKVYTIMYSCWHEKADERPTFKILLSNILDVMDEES
Respond with the bare value in nM.

Please review the following examples before continuing.
1) CN1CCN([C@@H]2CCCN(c3cnc(C(N)=O)c(Nc4ccc(C5CCN(C[C@H]6CCN(c7ccc8c(c7)C(=O)N(C7CCC(=O)NC7=O)C8=O)C6)CC5)cc4)n3)C2)C1=O (stereo partly drawn) : 0.36
2) CN1CCN([C@@H]2CCCN(c3cnc(C(N)=O)c(Nc4ccc(C5CCN(CC6CCN(c7ccc(-c8nn(C9CCC(=O)NC9=O)c(=O)n8C)cc7)CC6)CC5)cc4)n3)C2)C1=O (stereo partly drawn) : 1
3) NC(=O)c1ncc(N2CCCCC2)nc1Nc1ccc(C2CCN(C[C@@H]3CCN(c4ccc5c(c4)C(=O)N(C4CCC(=O)NC4=O)C5=O)C3)CC2)cc1 (stereo partly drawn) : 2.3
4) NC(=O)c1ncc(-c2nccs2)nc1Nc1ccc(N2CCC3(CCN(Cc4ccc5c(c4)C(=O)N(C4CCC(=O)NC4=O)C5=O)CC3)CC2)cc1 (stereo not drawn) : 4.7
5) CN1CCN([C@@H]2CCCN(c3cnc(C(N)=O)c(Nc4ccc(C5CCN(CC6CCN(c7ccc8c(=O)n(C9CCC(=O)NC9=O)ccc8c7)CC6)CC5)cc4)n3)C2)C1=O (stereo partly drawn) : 0.21

Shift focus to the following entry.
Input line: Recorded DC50 for NC(=O)c1ncc(-c2nccs2)nc1Nc1ccc(C2CCN(C[C@@H]3CCN(c4ccc5c(c4)C(=O)N(C4CCC(=O)NC4=O)C5=O)C3)CC2)cc1 (stereo partly drawn) , please?
Output line: 0.68

* * *

assay: Compound plasma exposure in cyno DRF study; assay type: in vivo; conditions: cynomolgus monkey, po, 30 mg/kg, 30 mg/kg PO, 1 day of dosing
Recorded AUC, one value per entry.
I only need the number, in µM·h, no unit after it.

Input line: Item under review: NC(=O)c1ncc(N2CCCCC2)nc1Nc1ccc(C2CCN(C[C@@H]3CCN(c4ccc5c(c4)C(=O)N(C4CCC(=O)NC4=O)C5=O)C3)CC2)cc1 (stereo partly drawn) [Compound 149] . Reported AUC?
Output line: 0.72

Input line: Next up: CN1CCN([C@H]2CCCN(c3cnc(C(N)=O)c(Nc4ccc(C5CCN(CC6CCN(c7ccc(C(=O)NC8CCC(=O)NC8=O)nc7)CC6)CC5)cc4)n3)C2)C1=O (stereo partly drawn) [Compound 130]
Output line: 0.582

Input line: Queued: CN1CCN([C@@H]2CCCN(c3cnc(C(N)=O)c(Nc4ccc(C5CCN(C[C@H]6CCN(c7ccc8c(c7)C(=O)N(C7CCC(=O)NC7=O)C8=O)C6)CC5)cc4)n3)C2)C1=O (stereo partly drawn) [Compound 44]
Output line: 0.268

* * *

Catalogue of % BTK Remaining readings, one per entry.
molecular target: BTK (Mus musculus, UniProt P35991); construct: from tissue; host or cells: mouse blood B cells / splenocytes (CD-1 or BALB/c); assay: In vivo degradation of BTK in mouse PD experiments with oral dosing; conditions: oral dose 3 mg/kg, 6 h, blood, flow cytometry
Write the answer as a number in %, unit excluded.

Consider the following illustrative entries.
1. Cn1cc(Nc2nc(N3CCC[C@@H](N4CC5(CN(CC6CN(c7ccc8c(c7)C(=O)N(C7CCC(=O)NC7=O)C8=O)C6)C5)OC4=O)C3)cnc2C(N)=O)cn1 (some centres unmarked) : 97
2. CN1CCN([C@H]2CCCN(c3cnc(C(N)=O)c(Nc4ccc(N5CCC6(CCN(c7ccc8c(c7)C(=O)N(C7CCC(=O)NC7=O)C8=O)CC6)CC5)nc4)n3)C2)C1=O (some centres unmarked) : 96
3. CN1CCN([C@@H]2CCCN(c3cnc(C(N)=O)c(Nc4ccc(C5CN(C6CCN(c7ccc8c(c7)C(=O)N(C7CCC(=O)NC7=O)C8=O)CC6)C5)cc4)n3)C2)C1=O (some centres unmarked) : 26
4. Cn1cc(Nc2nc(N3CCC[C@@H](N4CC5(CN(CC6CCN(c7ccc8c(c7)C(=O)N(C7CCC(=O)NC7=O)C8=O)CC6)C5)OC4=O)C3)cnc2C(N)=O)cn1 (some centres unmarked) : 74

Input line: Sample CN1CCN([C@@H]2CCCN(c3cnc(C(N)=O)c(Nc4cc5n(n4)CCN(C[C@H]4CCN(c6ccc7c(c6)C(=O)N(C6CCC(=O)NC6=O)C7=O)C4)C5)c3)C2)C1=O (some centres unmarked) — what was its % BTK Remaining?
Output line: 100

* * *

Listed here are compounds together with their documented CD25 Staining Anti-CD3/Anti-CD28 Stimulation.
system: primary human T cells; test: T cell activation assay, CD25 and CD69 staining (flow cytometry); format: cell-based; settings: 333 nM; fold-change of response relative to baseline
Give only the figure.

Observe how each entry below is paired with its result.
1) CN1CCN([C@@H]2CCCN(c3cnc(C(N)=O)c(Nc4ccc(C5CCN(CC6CCN(c7ccc8c(c7)C(=O)N(C7CCC(=O)NC7=O)C8=O)CC6)CC5)cc4)n3)C2)C1=O (some centres unmarked) : 0.38
2) CN1CCN([C@@H]2CCCN(c3cnc(C(N)=O)c(Nc4ccc(OCCCNc5ccc6c(c5)C(=O)N(C5CCC(=O)NC5=O)C6=O)cc4)n3)C2)C1=O (some centres unmarked) : 0.34
3) CN1CCN([C@@H]2CCCN(c3cnc(C(N)=O)c(Nc4ccc(C5CCN(C[C@H]6CCN(c7ccc8c(c7)C(=O)N(C7CCC(=O)NC7=O)C8=O)C6)CC5)cc4)n3)C2)C1=O (some centres unmarked) : 0.52
4) CN1CCN([C@@H]2CCCN(c3cnc(C(N)=O)c(Nc4ccc(C5CCN(C6CN(c7ccc8c(c7)C(=O)N(C7CCC(=O)NC7=O)C8=O)C6)CC5)cc4)n3)C2)C1=O (some centres unmarked) : 0.84
5) Nc1cccc2c1C(=O)N(C1CCC(=O)NC1=O)C2=O (centres unmarked) [Pomalidomide, pomalidomide, reference compound] : 1.63
6) CN1CCN([C@@H]2CCCN(c3cnc(C(N)=O)c(Nc4ccc(N5CCN(C[C@@H]6[C@H]7CN(c8ccc9c(c8)C(=O)N(C8CCC(=O)NC8=O)C9=O)C[C@@H]67)CC5)cc4)n3)C2)C1=O (some centres unmarked) : 0.86
7) CN1CCN([C@@H]2CCCN(c3cnc(C(N)=O)c(Nc4ccc(C5CCN(CCCNc6cccc7c6C(=O)N(C6CCC(=O)NC6=O)C7=O)CC5)cc4)n3)C2)C1=O (some centres unmarked) : 1.21

Input line: Any idea what its CD25 Staining Anti-CD3/Anti-CD28 Stimulation is? The compound is CN1CCN([C@@H]2CCCN(c3cnc(C(N)=O)c(Nc4ccc(N5CC6(C5)CN(c5ccc7c(c5)C(=O)N(C5CCC(=O)NC5=O)C7=O)C6)cc4)n3)C2)C1=O (some centres unmarked)
Output line: 1.25
